- measurement.target: CDK4/cyclin D3 (Homo sapiens)
- Construct: purchased Carna Biosciences, Inc. QS S Assist CDK4/Cyclin D3_FP Kit
- protocol.summary: Human CDK4/cyclin D3 inhibitory activity (QS S Assist CDK4/Cyclin D3_FP Kit, IMAP fluorescence polarization)
- Type: biochemical
- run.parameters: 50% inhibitory concentration against CDK4/cyclin D3, given as class symbol
measurement.label: IC50

Cc1nc(Nc2ncc3c(Cl)c(C(F)F)nc(NC(C)C)c3n2)ccc1N1CCNCC1=O [Compound 851]; 10 to 100 nM
CC(C)Nc1nc(C2CCOC2)cc2cnc(Nc3ccc(N4CCN(CC(=O)O)CC4C(F)(F)F)cn3)nc12 (stereo not shown) [Compound 889]; 10 to 100 nM
CC(C)Nc1nc([C@@H](C)O)cc2cnc(Nc3ccc(N4CCC5(CC4)CNC(=O)C5)nn3)nc12 [Compound 648]; < 10 nM
CC(C)Nc1nc([C@@H](C)O)cc2cnc(Nc3ccc(N4CCN(C(C)C#N)CC4)nn3)nc12 (stereo partly shown) [Compound 902]; < 10 nM
CC(O)CN1CCN(c2ccc(Nc3ncc4cc([C@@H](C)O)nc(NC(C)C)c4n3)nc2)C(=O)C1 (stereo partly shown) [Compound 636]; < 10 nM
CO[C@H](C)c1cc2cnc(Nc3ccc(CN4CCNC[C@H]4C)cn3)nc2c(NC(C)C)n1 [Compound 978]; < 10 nM
CCCNc1nc(C2CCOC2)cc2cnc(Nc3ccc(CN4CCNCC4)cn3)nc12 (stereo not shown) [Compound 1005]; < 10 nM

###

- measurement.target: CDK4/cyclin D3 (Homo sapiens, UniProt P11802)
- Construct: purchased Carna Biosciences, Inc. QS S Assist CDK4/Cyclin D3_FP Kit
- Sequence (P11802 whole entry): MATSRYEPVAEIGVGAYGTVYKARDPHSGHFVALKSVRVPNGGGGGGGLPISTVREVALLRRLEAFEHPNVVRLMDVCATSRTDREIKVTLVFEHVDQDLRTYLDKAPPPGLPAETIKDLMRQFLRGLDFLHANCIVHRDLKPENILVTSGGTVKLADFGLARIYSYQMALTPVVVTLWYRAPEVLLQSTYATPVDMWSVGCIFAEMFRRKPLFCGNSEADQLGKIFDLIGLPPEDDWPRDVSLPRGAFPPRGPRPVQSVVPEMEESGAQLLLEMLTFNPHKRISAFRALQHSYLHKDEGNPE
- Sequence (P30281 whole entry partner): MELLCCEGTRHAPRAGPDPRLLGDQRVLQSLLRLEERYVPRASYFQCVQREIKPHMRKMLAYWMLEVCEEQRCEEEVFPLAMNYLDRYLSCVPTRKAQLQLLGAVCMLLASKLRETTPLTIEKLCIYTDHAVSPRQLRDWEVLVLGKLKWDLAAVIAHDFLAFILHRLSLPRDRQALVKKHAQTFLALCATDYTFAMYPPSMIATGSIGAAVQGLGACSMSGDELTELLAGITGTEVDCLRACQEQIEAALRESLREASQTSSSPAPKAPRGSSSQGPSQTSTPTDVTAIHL
- protocol.summary: Human CDK4/cyclin D3 inhibitory activity (QS S Assist CDK4/Cyclin D3_FP Kit, IMAP fluorescence polarization)
- Type: biochemical
- run.parameters: Human CDK4/cyclin D3 inhibitory activity; read-out: CDK4 Activity symbol
measurement.label: IC50

C[C@@H](O)c1cc2cnc(Nc3ccc(CN4CCNCC4)cn3)nc2c(NC2(C(=O)O)CCCC2)n1; 10 to 100 nM
CNC1(COc2ccc(Nc3ncc4cc(C(C)OC)nc(NC(C)C)c4n3)nc2)CC1 (centres unmarked); 10 to 100 nM
CO[C@H](C)c1cc2cnc(Nc3ccc(N4CCN(C(=O)CO)CC4)nn3)nc2c(NC(C)C)n1; < 10 nM
COCCNCc1ccc(Nc2ncc3cc([C@@H](C)O)nc(NC(C)(C)COC)c3n2)nc1; 10 to 100 nM
CO[C@H](C)c1cc2cnc(Nc3ccc(CN4CCN(CCO)CC4)cn3)nc2c(NC(C)C)n1; < 10 nM
Cc1c([C@H](C)O)nc(NC(C)C)c2nc(Nc3ccc(N4CCNCC4)cn3)ncc12; 10 to 100 nM
FC(F)c1cc2cnc(Nc3ccc(N4CCNCC4)nn3)nc2c(N[C@H]2CCCOC2)n1; < 10 nM
CC(C)Nc1nc(C(F)F)cc2cnc(Nc3ccc(N4C[C@@H](O)CC4=O)cn3)nc12; < 10 nM

###

- measurement.target: CDK4/cyclin D3 (Homo sapiens)
- Construct: purchased Carna Biosciences, Inc. QS S Assist CDK4/Cyclin D3_FP Kit
- protocol.summary: Human CDK4/cyclin D3 inhibitory activity (QS S Assist CDK4/Cyclin D3_FP Kit, IMAP fluorescence polarization)
- Format: biochemical
- run.parameters: 50% inhibitory concentration against CDK4/cyclin D3, given as class symbol
- Description: Human CDK4/Cyclin D3 Inhibitory Activity Each compound was analyzed for CDK4/cyclin D3 inhibitory activity with an assay kit (QS S Assist CDK4/Cyclin D3_FP Kit, available from Carna Biosciences, Inc.). […] Specifically, the kinase activity is determined through quantification of a variation in fluorescent polarization caused by binding of a kinase-phosphorylated fluorescent substance to an IMAP-binding reagent. […]
measurement.label: IC50

CNCCOc1ccc(Nc2ncc3cc([C@@H](C)O)nc(N(C)[C@H]4CCCOC4)c3n2)nc1; < 10 nM
CCCNc1nc([C@@H](C)O)cc2cnc(Nc3ccc(CN4CCN(CCO)CC4)cn3)nc12; < 10 nM
CCNc1nc([C@@H](C)OC)cc2cnc(Nc3ccc4c(n3)CCN(CCN(C)C)C4)nc12; 10 to 100 nM
COC(=O)CNCCNc1ccc(Nc2ncc3cc([C@@H](C)O)nc(NC(C)C)c3n2)nc1; 10 to 100 nM
CO[C@H](C)c1nc(NC(C)C)c2nc(Nc3ccc(C(=O)N4CCNCC4)cn3)ncc2c1Cl; 10 to 100 nM
CC(C)Nc1nc([C@@H](C)O)cc2cnc(Nc3ccc(N4CCN(C[C@H](C)O)CCC4=O)cn3)nc12; < 10 nM
CC(C)Nc1nc([C@@H](C)O)cc2cnc(Nc3ccc(C(=O)N4CCNC[C@H]4C)cn3)nc12; < 10 nM
C[C@@H](O)c1cc2cnc(Nc3ccc(N4CCNCC4=O)cn3)nc2c(NC2CC(F)C2)n1 (stereo partly drawn); < 10 nM
CC(C)Nc1nc([C@@H](C)O)cc2cnc(Nc3cc4c(cn3)CN(C(=O)CO)CC4)nc12; 10 to 100 nM
CCCNc1nc(C2CCCO2)cc2cnc(Nc3ccc(N4CCNCC4)cn3)nc12 (single isomer, unassigned) [Compound 1026]; 10 to 100 nM
C[C@@H](O)c1cc2cnc(Nc3ccc(CN4CCN(CCO)CC4)cn3)nc2c(NCCC(F)F)n1; < 10 nM
CCCNc1nc([C@@H](C)O)cc2cnc(Nc3ccc(O[C@@H]4CCN(CCO)C4)cn3)nc12; < 10 nM
CCNc1nc(C(F)F)cc2cnc(Nc3ccc(N4CCNCC4=O)cn3)nc12; < 10 nM
COC(=O)N1CCN(c2ccc(Nc3ncc4cc([C@@H](C)OC)nc(N[C@H]5CCCOC5)c4n3)nn2)CC1; 10 to 100 nM
COC1CCN(c2ccc(Nc3ncc4cc([C@@H](C)O)nc(NC(C)C)c4n3)nn2)CC1; < 10 nM
CC(C)Nc1nc([C@@H](C)O)cc2cnc(Nc3cnc(N4CCNCC4=O)cn3)nc12; 10 to 100 nM
CC(C)Nc1nc([C@@H](C)O)cc2cnc(Nc3ccc4c(n3)CCN(C(=O)[C@@H](N)C(C)C)C4)nc12; < 10 nM
CC(C)Nc1nc([C@@H](C)O)cc2cnc(Nc3ccc(N4CCN(C(=O)C(C)C)CC4)nn3)nc12; < 10 nM
Cc1ncn(Cc2ccc(Nc3ncc4cc([C@@H](C)O)nc(NC(C)C)c4n3)nc2)c1C(=O)O; 10 to 100 nM
CC(C)Nc1nc([C@@H](C)O)cc2cnc(Nc3cnc(CN4CCNCC4)cn3)nc12; < 10 nM
CC(C)Nc1nc([C@@H](C)O)cc2cnc(Nc3ccc(N4CCN[C@@H](C(C)C)C4=O)cn3)nc12; < 10 nM
CC(C)Nc1nc([C@@H](C)O)cc2cnc(Nc3ccc(N4CCOCC4=O)cn3)nc12; < 10 nM
CC(C)Nc1nc([C@@H](C)O)cc2cnc(Nc3ccc4c(n3)CCN(S(C)(=O)=O)C4)nc12; < 10 nM
CC(C)Nc1nc([C@@H](C)O)cc2cnc(Nc3ccc4c(n3)CNC4)nc12; < 10 nM
CC(C)Nc1nc(C2CCCO2)cc2cnc(Nc3ccc(N4CCNCC4=O)cn3)nc12 (single isomer, unassigned) [Compound 672]; < 10 nM
CC(C)Nc1nc([C@@H](C)O)cc2cnc(Nc3ccc(-c4cncn4C)cn3)nc12; < 10 nM
CCNc1nc([C@@H](C)OC)cc2cnc(Nc3ccc4c(n3)CCN(C(=O)OCCN(C)C)C4)nc12; < 10 nM
CC(C)Nc1nc([C@@H](C)O)cc2cnc(Nc3ccc(N4CCN(CC(=O)O)CC4=O)cn3)nc12; < 10 nM
C[C@@H](O)c1nc(N[C@H]2CCCOC2)c2nc(Nc3ccc(OCCN(C)C)cn3)ncc2c1Cl; < 10 nM
CCCNc1nc([C@@H](C)O)cc2cnc(Nc3ccc(CN4CC5CCC(C4)N5C)cn3)nc12; < 10 nM
